# test-name: yeast display, Sf9 membrane polyspecificity reagent, FACS + sequencing; frameworks hold sequencing errors
value-type: polyreactivity (PSR sort gate)

Look over these answered cases.
# sequence-code, polyreactivity (PSR sort gate)
measured = [
    ("QVQLVESGGGLVQAGRSLRLSCAASGITFPVYPMGWYRQAPGKERELVATITSSGGRTYYADSVKGRFTISRDNAKNTVYLQMNSLKPEDSAVYYCAAANGKGQGGYDYWGHGTQVTVSS", "high polyreactivity"),
    ("QVQLVESGGGLVQAGGSLRLSCAASGSILSYNAMGWSRQAPGKERELVATITGTGGSTRYADSVKGRFTISRDNAKNTVYLQMNSLKPEDTAVYYCATAAWWYYRIYHEFGYWGQGTQVTVSS", "high polyreactivity"),
    ("QVQLVESGGGLVQAGGSLRLSCAASGYTVRFNAMGWYRQAPGKEREFVAAIDFGGAGTYYADSVKGRFTISRDNAKNTVYLQMNSLKPEDTAVYYCNARDGVTTEFDYWGQGTQVTVSS", "low polyreactivity"),
    ("QVQLVESGGGLVQAGGSLRLSCAASGRIFHSYTIGWYRPAPGNERELVAAINWSGTRTYYADSVKGRFTISRDNAKNTVYLQMNSLKPEDTAVYYCNRVGVTRSYRYDYWGQGTQVTVSS", "high polyreactivity"),
]

Here is another sequence to look at.
// field: polyreactivity (PSR sort gate); key: `QVQLVESGGGLVQAGGSLRLSCAASGLTFWPNAMGWYRQAPGKERELVAAISYTGGITYYADSVKGRFTISRDNAKNTDYLQMNSLKPEDTAVYSCNKGRRGYYSVRRYDYWGQGTQVTVSS` ; value = low polyreactivity
